molecular target: Grb2 SH2 (UniProt P62993); test: SH2 binding enrichment of the phosphorylated peptide, bacterial display (enrichment ratio); higher = better substrate or ligand; peptides without Tyr show the background;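 further: peptide library displayed on the E. coli surface as eCPX fusions, selected cells deep-sequenced, score is each peptide's frequency after selection divided by its frequency in the input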
Sequence (P62993 whole entry, looked up, the tested form may be a part): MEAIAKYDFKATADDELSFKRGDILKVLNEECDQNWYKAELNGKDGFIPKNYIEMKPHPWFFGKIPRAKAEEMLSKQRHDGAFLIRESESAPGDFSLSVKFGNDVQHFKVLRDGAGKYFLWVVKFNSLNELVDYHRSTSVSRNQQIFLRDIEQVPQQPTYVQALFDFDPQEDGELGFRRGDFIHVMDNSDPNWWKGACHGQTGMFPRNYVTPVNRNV
// label = met if SH2 binding enrichment is not less than 0.8, otherwise not met

Consider the worked cases shown below.
• KDHRDYKFQPR [SOX9_Y172_P170R_YF] = met
• PQGVGYPPQQQ [EP300_Y2219] = met
• LVSCAYQVARG [FGFR1_Y605] = met
• QFNIQYSSSAA [ERBB2IP_Y981_YF] = not met
• TENAGYYFRIS = not met
• EQKRFYNAMKK [SCN5A_Y1495_K1493R_YF] = not met

Please find the next sequence below.
Exercise: Evaluate SGGGLYRDMGA [CBX8_Y321] : SH2 binding enrichment at minimum 0.8?
Key: met
